tested.on: IMP-1 (Serratia marcescens, UniProt P52699)
Sequence (P52699 whole entry, looked up, species assumed): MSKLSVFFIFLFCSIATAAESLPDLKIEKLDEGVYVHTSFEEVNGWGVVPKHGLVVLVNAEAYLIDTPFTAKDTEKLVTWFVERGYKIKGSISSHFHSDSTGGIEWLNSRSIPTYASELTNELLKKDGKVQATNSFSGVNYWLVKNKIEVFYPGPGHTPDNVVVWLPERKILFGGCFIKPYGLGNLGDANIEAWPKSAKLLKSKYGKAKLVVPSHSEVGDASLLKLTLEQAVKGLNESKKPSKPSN
assay: biochemical
Assay type: biochemical
recorded.conditions: CCF2-FA substrate, 2 hours at 25° C; read-out: IMP-1 IC50
pIC50: −log10 of the molar value.
Everything with pIC50 lower than 9 is Criterion not met; everything else, including exactly 9, is Criterion met.

compound: NCCS(=O)(=O)c1ccc(-c2cccc3nc(N)nn23)c(-c2nn[nH]n2)c1S(N)(=O)=O [Example 225]
assigned.label: Criterion not met

compound: Nc1nc2c(-c3ccc(S(=O)(=O)[C@@H]4CCNC4)c(S(N)(=O)=O)c3-c3nn[nH]n3)cccc2s1 [Example 183]
assigned.label: Criterion met

compound: NS(=O)(=O)c1c(S(=O)(=O)C2CNC2)ccc(-c2cccc3c2CNC3=O)c1-c1nnn[nH]1.O=C(O)C(F)(F)F [Example 113, 2,2,2-trifluoroacetate]
assigned.label: Criterion not met

compound: NCCS(=O)(=O)c1ccc(-c2cccc3[nH]c(C(F)(F)CN)nc23)c(-c2nn[nH]n2)c1S(N)(=O)=O [Example 307]
assigned.label: Criterion met

compound: C[C@H](N)CS(=O)(=O)c1ccc(-c2cccc3c2nc(N)n3C)c(-c2nn[nH]n2)c1S(N)(=O)=O [Example 276]
assigned.label: Criterion met

compound: Cc1ccc(-c2ccc(S(=O)(=O)[C@H]3CCNC3)c(S(N)(=O)=O)c2-c2nn[nH]n2)c2nc(N)sc12 [Example 188]
assigned.label: Criterion met

compound: CCOC(=O)N1CCC(S(=O)(=O)c2ccc(-c3cccc4nc(N)[nH]c34)c(-c3nn[nH]n3)c2S(N)(=O)=O)CC1 [Example 46]
assigned.label: Criterion not met

compound: NS(=O)(=O)c1c(S(=O)(=O)C2CN(C(=O)NC3CC3)C2)ccc(-c2ccc(NS(=O)(=O)C3CC3)cc2)c1-c1nn[nH]n1 [Example 245]
assigned.label: Criterion met

compound: C[C@@H](N)CS(=O)(=O)c1ccc(-c2cccc3sc(N)nc23)c(-c2nn[nH]n2)c1S(N)(=O)=O [Example 268]
assigned.label: Criterion met

compound: Nc1n[nH]c2cccc(-c3ccc(S(=O)(=O)C4CNC4)c(S(N)(=O)=O)c3-c3nnn[nH]3)c12 [Example 263]
assigned.label: Criterion not met

compound: NCCS(=O)(=O)c1ccc(-c2cnn3c2CCC3)c(-c2nnn[nH]2)c1S(N)(=O)=O.O=C(O)C(F)(F)F [Example 152, 2,2,2-trifluoroacetate]
assigned.label: Criterion not met
